// data source = patent US20230265151A1

Target Under Test: human GLP-1 receptor (human, UniProt P43220 24-463)
Assay Comment: cell-based or functional assay
Recorded Endpoint: EC50, cAMP (nM)
Express your answer in nM, writing the number without its unit.

Ask: Requested field: EC50, cAMP. Item: YXEGTXTSDXSIXLDXKAQXEFIXXLIEGGKSSGAPPPS (Aib2, αMeF(2F)6, Ac6c10, αMeL13, Orn16, Aib20, D-Glu24, αMeY25, K17 and K31: K(AEEA2-(γ-Glu)-CO-(CH2)12-CO2H), C-terminal NH2) [Example 54]
Result: 0.538

Continuing:
Ask: Requested field: EC50, cAMP. Item: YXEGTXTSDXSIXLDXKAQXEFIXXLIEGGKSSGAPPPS (Aib2, αMeF(2F)6, 4Pal10, αMeL13, Orn16, Aib20, D-Glu24, αMeY25, K17 and K31: K(AEEA2-(γ-Glu)-(10-(4-carboxyphenoxy)decanoyl)), C-terminal NH2) [Example 2]
Result: 1.14

Ask: Requested field: EC50, cAMP. Item: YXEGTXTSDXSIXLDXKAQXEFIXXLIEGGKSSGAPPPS (Aib2, αMeF(2F)6, 4Pal10, αMeL13, Orn16, Aib20, D-Glu24, αMeY25, K17 and K31: K(AEEA-(γ-Glu)-AEEA-CO-(CH2)12-CO2H), C-terminal NH2) [Example 43]
Result: 0.821

Ask: Requested field: EC50, cAMP. Item: YXEGTXTSDXSIXLDXKAQXEXIKYLIEGGPSSGAPPPS (Aib2, αMeF(2F)6, 4Pal10, αMeL13, Orn16, Aib20, αMeF22, K17 and K24: K(AEEA2-(γ-Glu)-CO-(CH2)12-CO2H), C-terminal NH2) [Example 85]
Result: 7.69

Ask: Requested field: EC50, cAMP. Item: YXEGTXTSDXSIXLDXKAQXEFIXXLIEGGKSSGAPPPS (Aib2, αMeF(2F)6, 4Pal10, αMeL13, Orn16, Aib20, D-Glu24, αMeY25, K17 and K31: K(AEEA3-(γ-Glu)-CO-(CH2)12-CO2H), C-terminal NH2) [Example 30]
Result: 2.27

Ask: Requested field: EC50, cAMP. Item: YXEGTXTSDXSIXLDXKAQXEFIKXLIEGGPSSGAPPPS (Aib2, αMeF(2F)6, 4Pal10, αMeL13, Orn16, Aib20, αMeY25, K17 and K24: K(AEEA2-(γ-Glu)-CO-(CH2)12-CO2H), C-terminal NH2) [Example 16]
Result: 0.245
